Target: Voltage-dependent L-type calcium channel subunit alpha-1C (Rattus norvegicus, UniProt P22002)
Sequence (P22002 whole entry): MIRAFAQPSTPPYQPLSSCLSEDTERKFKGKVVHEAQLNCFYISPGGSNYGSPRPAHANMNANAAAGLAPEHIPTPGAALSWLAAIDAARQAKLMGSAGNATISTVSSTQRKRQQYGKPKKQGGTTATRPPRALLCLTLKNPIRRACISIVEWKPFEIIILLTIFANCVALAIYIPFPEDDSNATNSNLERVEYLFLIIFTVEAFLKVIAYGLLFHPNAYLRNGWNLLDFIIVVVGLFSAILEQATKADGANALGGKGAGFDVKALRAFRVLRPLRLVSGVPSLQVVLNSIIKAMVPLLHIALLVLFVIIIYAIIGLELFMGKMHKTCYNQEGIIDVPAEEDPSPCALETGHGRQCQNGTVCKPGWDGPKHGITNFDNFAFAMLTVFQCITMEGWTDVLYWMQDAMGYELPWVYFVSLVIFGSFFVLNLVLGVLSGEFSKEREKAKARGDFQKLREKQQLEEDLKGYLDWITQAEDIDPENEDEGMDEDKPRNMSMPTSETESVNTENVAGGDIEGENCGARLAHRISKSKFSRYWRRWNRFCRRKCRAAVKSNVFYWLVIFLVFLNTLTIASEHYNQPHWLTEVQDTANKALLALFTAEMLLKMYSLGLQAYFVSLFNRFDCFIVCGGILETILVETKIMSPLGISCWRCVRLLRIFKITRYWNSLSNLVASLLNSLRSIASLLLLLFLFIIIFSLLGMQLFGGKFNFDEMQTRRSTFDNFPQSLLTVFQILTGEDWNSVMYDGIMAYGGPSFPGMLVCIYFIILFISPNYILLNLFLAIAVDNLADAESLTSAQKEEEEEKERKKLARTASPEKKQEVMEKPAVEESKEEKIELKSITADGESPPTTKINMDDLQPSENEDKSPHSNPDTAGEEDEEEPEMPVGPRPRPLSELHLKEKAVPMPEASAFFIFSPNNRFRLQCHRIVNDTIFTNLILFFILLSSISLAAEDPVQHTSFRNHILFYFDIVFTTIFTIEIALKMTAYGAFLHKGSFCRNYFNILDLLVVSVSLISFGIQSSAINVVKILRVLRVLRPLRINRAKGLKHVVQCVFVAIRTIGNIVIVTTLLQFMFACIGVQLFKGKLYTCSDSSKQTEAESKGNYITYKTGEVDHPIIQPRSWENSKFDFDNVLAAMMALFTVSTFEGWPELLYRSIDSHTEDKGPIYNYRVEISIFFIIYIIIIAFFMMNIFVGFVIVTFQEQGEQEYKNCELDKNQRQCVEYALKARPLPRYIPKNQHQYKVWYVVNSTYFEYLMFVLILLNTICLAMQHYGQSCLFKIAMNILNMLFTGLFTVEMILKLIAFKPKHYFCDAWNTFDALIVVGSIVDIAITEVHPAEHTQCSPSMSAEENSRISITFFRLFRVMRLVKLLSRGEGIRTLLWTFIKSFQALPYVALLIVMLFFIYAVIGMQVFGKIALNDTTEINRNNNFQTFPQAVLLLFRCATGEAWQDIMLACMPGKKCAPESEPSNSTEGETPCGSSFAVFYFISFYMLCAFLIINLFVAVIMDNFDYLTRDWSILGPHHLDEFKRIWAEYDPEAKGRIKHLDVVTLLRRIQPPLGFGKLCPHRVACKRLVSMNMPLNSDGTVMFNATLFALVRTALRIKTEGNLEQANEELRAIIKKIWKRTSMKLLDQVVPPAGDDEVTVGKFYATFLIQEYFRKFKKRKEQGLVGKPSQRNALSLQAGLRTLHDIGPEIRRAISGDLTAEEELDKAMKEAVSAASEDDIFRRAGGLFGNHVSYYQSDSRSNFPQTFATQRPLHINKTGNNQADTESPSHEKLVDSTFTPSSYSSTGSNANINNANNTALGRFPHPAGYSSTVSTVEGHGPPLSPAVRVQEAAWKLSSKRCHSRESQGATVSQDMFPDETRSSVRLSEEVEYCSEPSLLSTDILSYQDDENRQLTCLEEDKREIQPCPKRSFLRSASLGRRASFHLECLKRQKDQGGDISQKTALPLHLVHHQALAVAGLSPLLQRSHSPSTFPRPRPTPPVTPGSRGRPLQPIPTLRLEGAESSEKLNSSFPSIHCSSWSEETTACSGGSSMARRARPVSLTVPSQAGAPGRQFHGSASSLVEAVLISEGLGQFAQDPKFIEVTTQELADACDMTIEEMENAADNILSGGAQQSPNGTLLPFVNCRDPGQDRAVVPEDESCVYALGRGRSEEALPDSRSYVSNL
experimental endpoint: Ki

[Q] Data request, read-out Ki, for Nc1ncnc2nc(-c3ccc(N4CCOCC4)nc3)cc(-c3cccc(Br)c3)c12
[A] > 10 µM

* * *

Target: Chloride channel protein 1 (Rattus norvegicus, UniProt P35524)
Sequence (P35524 whole entry): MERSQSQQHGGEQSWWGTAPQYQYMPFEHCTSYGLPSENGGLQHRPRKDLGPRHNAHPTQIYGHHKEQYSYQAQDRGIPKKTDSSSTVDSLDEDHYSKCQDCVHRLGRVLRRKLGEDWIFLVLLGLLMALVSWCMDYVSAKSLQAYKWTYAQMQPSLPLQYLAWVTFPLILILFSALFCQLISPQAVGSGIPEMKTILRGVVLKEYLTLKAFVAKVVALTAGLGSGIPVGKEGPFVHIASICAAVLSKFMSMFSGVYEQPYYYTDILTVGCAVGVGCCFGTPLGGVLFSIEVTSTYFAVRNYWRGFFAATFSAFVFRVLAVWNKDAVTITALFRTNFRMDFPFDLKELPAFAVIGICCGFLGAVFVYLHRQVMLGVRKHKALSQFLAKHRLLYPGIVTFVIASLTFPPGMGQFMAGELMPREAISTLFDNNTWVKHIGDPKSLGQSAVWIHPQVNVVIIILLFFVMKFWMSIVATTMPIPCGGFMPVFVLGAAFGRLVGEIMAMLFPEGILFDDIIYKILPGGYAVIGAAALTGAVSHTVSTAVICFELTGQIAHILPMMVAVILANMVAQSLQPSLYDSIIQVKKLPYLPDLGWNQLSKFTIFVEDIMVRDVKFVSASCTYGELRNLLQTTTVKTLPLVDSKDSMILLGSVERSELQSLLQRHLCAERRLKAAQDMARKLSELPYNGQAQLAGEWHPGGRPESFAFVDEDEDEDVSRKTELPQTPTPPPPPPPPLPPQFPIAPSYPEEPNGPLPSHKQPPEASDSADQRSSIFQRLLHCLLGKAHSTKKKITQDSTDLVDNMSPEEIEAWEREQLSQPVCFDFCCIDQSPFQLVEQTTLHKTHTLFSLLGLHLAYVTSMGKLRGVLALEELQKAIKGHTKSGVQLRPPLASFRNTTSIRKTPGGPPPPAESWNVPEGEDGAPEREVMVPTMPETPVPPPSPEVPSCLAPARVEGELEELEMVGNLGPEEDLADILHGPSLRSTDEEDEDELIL
pKi: −log10 of the molar value.
experimental endpoint: pKi

[Q] What pKi value was documented for this molecule, Nc1ncnc2nc(-c3ccc(N4CCOCC4)nc3)cc(-c3cccc(Br)c3)c12 ?
[A] < 5.00

Data origin: BindingDB's records for PubMed 11082453
